Test description: qHTS assay to identify small molecule antagonists of the thyroid receptor (TR) signaling pathway (AID 743065); note: nearly all actives have a fitted effect of over 55% in size
Setup conditions: GH3.TRE-Luc, T3-stimulated luciferase inhibition, 23.5 h; series mostly up to 70.3 µM
Results filed as inconclusive are left out. Calls of active or inactive are those of the source. Calls come from the whole dose curve; as a rule, active = well fitted inhibition curve with a large enough effect in the repeat runs; inconclusive = weak or mixed curves; inactive = no such curve, though single readings can be large or run the other way.
Pick one: active, inactive

Recorded results for 4 compounds are shown here.
| Compound | Class assignment |
| --- | --- |
| Nc1ccc(S(=O)(=O)Nc2ccccc2)cc1 | inactive |
| Clc1ccc(Cn2c(CN3CCCC3)nc3ccccc32)cc1 | active |
| Cc1[nH]c(C)c(Cl)c(=O)c1Cl | inactive |
| O=C(O)c1ccco1 | inactive |

**Q:** Outcome? c1cc(CCCc2ccncc2)ccn1
**A:** inactive

**Q:** Answer briefly: the call reported for C=C(C)C(=O)OCCO in this assay.
**A:** inactive

**Q:** GET /call?item= COc1cc2nc(N3CCN(C(=O)C4COc5ccccc5O4)CC3)nc(N)c2cc1OC (stereo not given) returns the recorded outcome of this test.
**A:** active

**Q:** For this compound, state the assay outcome: CCCCC/C=C\C/C=C\CCCCCCCC(=O)NC(C)c1ccccc1 (stereo not given)
**A:** inactive

**Q:** For CCOC(=O)C(F)(F)F , what call appears in the results of this test?
**A:** inactive

**Q:** Record request — test call for CC1=CCCC(C)(C)C12CCC(C)O2 (stereo not given)
**A:** inactive

**Q:** Please indicate how the test categorized NC(=O)C(c1ccccc1)(c1ccccc1)[C@@H]1CCN(CCc2ccc3c(c2)CCO3)C1 .
**A:** active

**Q:** What is the recorded call for this compound in the test? O=C(OCCc1ccccc1)c1ccccc1
**A:** inactive

**Q:** Which outcome did this test record for the compound CCCCc1nc2cccnc2n1Cc1ccc(-c2ccccc2-c2nnn[nH]2)cc1 ?
**A:** inactive

**Q:** What did this assay record as the result for Nc1cc(C(=O)O)c(O)c(S(=O)(=O)O)c1 ?
**A:** inactive

**Q:** Can you look up the reported call for CCOC(=O)NCCOc1ccc(Oc2ccccc2)cc1 for me?
**A:** inactive

**Q:** For CCCNCC(O)COc1ccccc1C(=O)CCc1ccccc1 (stereo not given) , what call appears in the results of this test?
**A:** active

**Q:** // return assay outcome for S=C([S-])NCCNC(=S)[S-].[Mn+2]
**A:** inactive

====

Test description: qHTS assay for small molecule disruptors of the mitochondrial membrane potential (AID 720635)
Setup conditions: HepG2 mitochondrial membrane potential, Mito-MPS dye ratio; series mostly up to 83.2 µM
Results filed as inconclusive are left out. Active and inactive are the calls of the source. Calls follow the shape of the dose curve; as a rule, active = well fitted inhibition curve with a large enough effect in the signal ratio in the repeat runs; inconclusive = weak or mixed curves, or effect the other way; inactive = flat fitted curve, though single readings scatter; the % refers to the signal ratio.
Pick one and only one: active, inactive

Completed entries (count: 3):
| Compound | Class assignment |
| --- | --- |
| COc1ccc(C(=O)Nc2nc3ccccc3c(NCc3ccccc3)c2C#N)cc1 | active |
| C[C@H]1C[C@H]2[C@@H]3CCC4=CC(=O)C=C[C@]4(C)[C@@]3(Cl)[C@@H](O)C[C@]2(C)[C@@]1(O)C(=O)CO | inactive |
| OCCNCc1ccccc1 | inactive |

**Q:** Which outcome did this test record for the compound CCOC(=O)COC(=O)c1cc(Oc2ccc(C(F)(F)F)cc2Cl)ccc1[N+](=O)[O-] ?
**A:** active

**Q:** GET /call?item= CC(C)(O)c1ccc(CNC(=O)c2cccnc2Oc2ccc(F)cc2)cc1 returns the recorded outcome of this test.
**A:** inactive

====

Test description: qHTS assay to identify small molecule antagonists of the estrogen related receptor signaling pathway with the pleiotropic PPARgamma coactivator (PGC) from Tox21 10K library - cell viability counter screen (AID 1224840); note: nearly all actives have a fitted effect of over 40% in size; note: potency is the fitted concentration of half-maximal effect
Setup conditions: PGC/ERR reporter cells viability, CellTiter-Fluor, 17.5 h; series mostly up to 92.4 µM
Inconclusive results are not listed. The source made the active and inactive calls. The call rests on the fitted dose curve; in most records, active means well fitted cell-killing curve with a large enough effect in the repeat runs (not every such curve was filed as active); inconclusive means weak or mixed curves, or effect the other way; inactive means no such curve, though single readings can be large or run the other way.
Reported endpoint: Potency

Some entries whose results are on file:
| Molecule | Potency |
| --- | --- |
| COc1cc(Cl)ccc1Oc1ccc(Cl)cc1Cl | inactive |
| NCc1ccccc1Sc1ccccc1CO | inactive |
| Nc1ccc([N+](=O)[O-])c(C(F)(F)F)c1 | inactive |
| O=C(O)c1nc(Cl)c(Cl)c(Cl)c1Cl | inactive |
| O=C(O)C1(C(=O)Nc2ccc(Cl)cc2Cl)CC1 | inactive |

**Q:** Consider the molecule CCCCCCCCCCCCCCCCOS(=O)(=O)O and give its measured Potency.
**A:** inactive

**Q:** So what's the measured Potency for this one? CCCCCCCCO[C@@H]1O[C@H](CO)[C@@H](O)[C@H](O)[C@H]1O
**A:** inactive

**Q:** Please report the recorded Potency for CCCCC(CC)CN1C(=O)C2C3C=CC(C3)C2C1=O (stereo not drawn) .
**A:** inactive

**Q:** Requested read-out: Potency. Entry: CCOC(=O)COC(=O)c1cc(Oc2ccc(C(F)(F)F)cc2Cl)ccc1[N+](=O)[O-]
**A:** inactive

**Q:** Item under review: COc1ccc(C(=O)c2ccc(OC)cc2O)c(O)c1 . Reported Potency?
**A:** inactive

**Q:** // returns reported Potency for input CCCCCCOC(=O)NC(=N)c1ccc(NCc2nc3cc(C(=O)N(CCC(=O)OCC)c4ccccn4)ccc3n2C)cc1
**A:** 29.8 µM (active)

**Q:** # Potency lookup, item C/C=C(/C(=C/C)c1ccc(OC(C)=O)cc1)c1ccc(OC(C)=O)cc1
**A:** inactive

**Q:** Name the reported Potency value associated with the molecule N=c1ccn2c(n1)O[C@H]1[C@H](O)[C@@H](CO)O[C@H]12
**A:** inactive

**Q:** Recorded Potency for COc1ccc(C(=O)N2CCN(CC(=O)N3CCOCC3)CC2)cc1 , please?
**A:** inactive

**Q:** Which Potency is reported for this molecule? CCN(CC)CCNC(=O)c1cc(Br)c(N)cc1OC
**A:** inactive

**Q:** So what does the record say about Potency for COc1ccnc(CS(=O)c2nc3ccc(OC(F)F)cc3[nH]2)c1OC (stereo not drawn) ?
**A:** inactive

**Q:** Requested field: Potency. Item: CCO[C@H](Cc1ccc(OCCc2ccc(OS(C)(=O)=O)cc2)cc1)C(=O)O
**A:** inactive

**Q:** Tell me the measured Potency of CCCNCC(O)COc1ccccc1C(=O)CCc1ccccc1 (stereo not drawn) , please.
**A:** inactive

====

Test description: qHTS assay to identify small molecule agonists of the androgen receptor (AR) signaling pathway in the presence of an antagonist - cell viability counter screen (AID 1259379); note: nearly all actives have a fitted effect of over 25% in size
Setup conditions: MDA-kb2 viability, CellTiter-Fluor, 16 h; series mostly up to 92.4 µM
Records with an inconclusive call do not appear. Active and inactive are the calls of the source. The call rests on the fitted dose curve; in most records, active means well fitted cell-killing curve with a large enough effect in the repeat runs; inconclusive means weak or mixed curves, or effect the other way; inactive means flat fitted curve, though single readings scatter.
Hi! Could you answer with just one of these? active, inactive

Check out these entries, answers already filled in.
| Compound | Class assignment |
| --- | --- |
| CCCCOC(=O)CCCCCCCC(=O)OCCCC | inactive |
| CCOC(=O)COC(=O)c1cc(Oc2ccc(C(F)(F)F)cc2Cl)ccc1[N+](=O)[O-] | inactive |
| CCCCCCCCCCCCCCCCCCOS(=O)(=O)O | inactive |
| COC(C)OC | inactive |

**Q:** Tell me the recorded outcome of this test for CCC(Cl)CCC(Cl)C(Cl)CC(Cl)C(Cl)C(Cl)CCl (configuration not stated) .
**A:** inactive

**Q:** Recorded test call requested for CC(C)(O)c1ccc(CNC(=O)c2cccnc2Oc2ccc(F)cc2)cc1
**A:** inactive

**Q:** For this compound, state the assay outcome: Cc1nn(C)c(Oc2ccccc2)c1/C=N/OCc1ccc(C(=O)OC(C)(C)C)cc1
**A:** active

**Q:** What outcome does the record of this test show for CCCCC/C=C\C/C=C\CCCCCCCC(=O)NC(C)c1ccccc1 (configuration not stated) ?
**A:** inactive

**Q:** Write down the call the test reported for this compound. Item: CC(=O)[O][Al][O]C(C)=O
**A:** inactive

**Q:** Which result was noted for this compound in the test: CCN(CC)c1ccc2c(-c3ccccc3C(=O)O)c3ccc(=[N+](CC)CC)cc-3oc2c1
**A:** active

**Q:** What is the recorded call for this compound in the test? CCCCc1nc2cccnc2n1Cc1ccc(-c2ccccc2-c2nnn[nH]2)cc1
**A:** inactive

**Q:** What did this assay record as the result for Cc1ccc(N=Nc2c(O)c(C(=O)O)cc3ccccc23)c(S(=O)(=O)O)c1 ?
**A:** active

====

Test description: qHTS assay to identify small molecule antagonists of the androgen receptor (AR) signaling pathway - cell viability counter screen (AID 743033; note: % is set by controls: 0 for no effect and ±100 for the full control effect; nearly all actives have a fitted effect of over 45% in size)
Setup conditions: AR-bla HEK293 viability, CellTiter-Glo luminescence, 16 h; series mostly up to 58.5 µM
Inconclusive results are not listed. Active and inactive are the calls of the source. The call rests on the fitted dose curve; in most records, active means well fitted cell-killing curve with a large enough effect in the repeat runs; inconclusive means weak or mixed curves; inactive means no such curve, though single readings can be large or run the other way.
Give your call using only these classes: 1 (active), -1 (inactive)

Solved cases below.
| Compound | Class assignment |
| --- | --- |
| O=C(O)CC(=O)C(=O)O | -1 |
| CC(CC=O)c1ccccc1 (configuration not stated) | -1 |
| CC(COCCO)OCCO (configuration not stated) | -1 |

**Q:** Which outcome was assigned to C[N+]1(C)CCC(OC(=O)C(O)(c2ccccc2)C2CCCC2)C1 (configuration not stated) in this test?
**A:** -1

**Q:** Lab log entry: CCCCCCCCCCCCCCCCCCOS(=O)(=O)O — outcome as called in the assay?
**A:** -1

Source listed as PubChem BioAssay (Tox21).
